- Tested on: K562
- testProtocol: Anticancer activity against human K562 cells assessed as cell growth inhibition measured after 48 hrs by sulforhodamine B assay
- Type: functional
- testSettings: 48 h
Listing of recorded GI50 by entry.

givenSmiles	targetOrSystem	valueUnit	comparisonOperator	GI50
CCOC(=O)c1nn(-c2ccccc2)c(-c2ccccc2)c1CNC(C)(C)C	K562	µM	=	113
CCOC(=O)c1nn(-c2ccccc2)c(-c2ccc(OC)cc2)c1CNC(C)(C)C	K562	µM	=	29.8
CCOC(=O)c1nn(-c2ccccc2)c(-c2ccc(F)cc2)c1CNC(C)(C)C	K562	µM	=	161
CCOC(=O)c1nn(-c2ccc(Cl)cc2)c(-c2ccc(F)cc2)c1CNC(C)(C)C	K562	µM	=	78.5
CCOC(=O)c1nn(-c2ccccc2)c(-c2ccc(Br)cc2)c1CNC(C)(C)C	K562	µM	>	509
CCOC(=O)c1nn(-c2ccc(Cl)cc2)c(-c2ccc(OC)cc2)c1CNC(C)(C)C	K562	µM	=	6.1
CCOC(=O)c1nn(-c2ccc(Cl)cc2)c(-c2ccccc2)c1CNC(C)(C)C	K562	µM	>	559
CCOC(=O)c1nn(-c2ccc(Cl)cc2)c(-c2ccc([N+](=O)[O-])cc2)c1CNC(C)(C)C	K562	µM	=	181
CCOC(=O)c1nn(-c2ccccc2)c(-c2ccc(Cl)cc2)c1CNC(C)(C)C	K562	µM	=	57.6
CCOC(=O)c1nn(-c2ccc(Cl)cc2)c(-c2ccc(Cl)cc2)c1CNC(C)(C)C	K562	µM	>	520

###

- Test system: NCI-H460
- testProtocol: Anticancer activity against human NCI-H460 cells assessed as cell growth inhibition measured after 48 hrs by sulforhodamine B assay
- Type: functional
- testSettings: Homo sapiens, NCI-H460, 48 h

givenSmiles	GI50
CC(C)(C)NCc1c(C(=O)O)nn(-c2ccccc2)c1-c1ccc([N+](=O)[O-])cc1	> 634 µM
CC(C)(C)NCc1c(C(=O)O)nn(-c2ccc(Cl)cc2)c1-c1ccc(Br)cc1	> 542 µM
CC(C)(C)NCc1c(C(=O)O)nn(-c2ccc(Cl)cc2)c1-c1ccc([N+](=O)[O-])cc1	141 µM
Cc1ccc(-c2c(CNC(C)(C)C)c(C(=O)O)nn2-c2ccc(Cl)cc2)cc1	> 630 µM
CCOC(=O)c1nn(-c2ccc(Cl)cc2)c(-c2ccccc2)c1CNC(C)(C)C	> 608 µM
CC(C)(C)NCc1c(C(=O)O)nn(-c2ccccc2)c1-c1ccccc1	> 716 µM
Cc1ccc(-c2c(CNC(C)(C)C)c(C(=O)O)nn2-c2ccccc2)cc1	> 688 µM
CCOC(=O)c1nn(-c2ccc(Cl)cc2)c(-c2ccc(F)cc2)c1CNC(C)(C)C	344 µM
CC(C)(C)NCc1c(C(=O)O)nn(-c2ccc(Cl)cc2)c1-c1ccccc1	> 652 µM
CCOC(=O)c1nn(-c2ccc(Cl)cc2)c(-c2ccc(C)cc2)c1CNC(C)(C)C	277 µM
CC(C)(C)NCc1c(C(=O)O)nn(-c2ccc(Cl)cc2)c1-c1ccc(F)cc1	> 623 µM
CCOC(=O)c1nn(-c2ccccc2)c(-c2ccc(OC)cc2)c1CNC(C)(C)C	119 µM

###

- System: PC-3
- testProtocol: Anticancer activity against human PC-3 cells assessed as cell growth inhibition measured after 48 hrs by sulforhodamine B assay
- Assay type: functional
- testSettings: Homo sapiens, PC-3, 48 h
Listing of recorded GI50 by entry.

givenSmiles	GI50
CC(C)(C)NCc1c(C(=O)O)nn(-c2ccccc2)c1-c1ccc(F)cc1	> 681 µM
CC(C)(C)NCc1c(C(=O)O)nn(-c2ccccc2)c1-c1ccccc1	> 716 µM
COc1ccc(-c2c(CNC(C)(C)C)c(C(=O)O)nn2-c2ccc(Cl)cc2)cc1	> 605 µM
CC(C)(C)NCc1c(C(=O)O)nn(-c2ccc(Cl)cc2)c1-c1ccc(Cl)cc1	> 599 µM
Cc1ccc(-c2c(CNC(C)(C)C)c(C(=O)O)nn2-c2ccccc2)cc1	> 688 µM
CCOC(=O)c1nn(-c2ccc(Cl)cc2)c(-c2ccccc2)c1CNC(C)(C)C	> 608 µM
CC(C)(C)NCc1c(C(=O)O)nn(-c2ccc(Cl)cc2)c1-c1ccc([N+](=O)[O-])cc1	> 584 µM
CC(C)(C)NCc1c(C(=O)O)nn(-c2ccccc2)c1-c1ccc(Cl)cc1	145 µM
Cc1ccc(-c2c(CNC(C)(C)C)c(C(=O)O)nn2-c2ccc(Cl)cc2)cc1	> 630 µM
COc1ccc(-c2c(CNC(C)(C)C)c(C(=O)O)nn2-c2ccccc2)cc1	> 659 µM
CC(C)(C)NCc1c(C(=O)O)nn(-c2ccccc2)c1-c1ccc(Br)cc1	> 585 µM
CCOC(=O)c1nn(-c2ccccc2)c(-c2ccc(F)cc2)c1CNC(C)(C)C	69.3 µM

Just for reference, ChEMBL document CHEMBL4673302 is where these values come from.
